assayed_system: T1, LHRH binding sites on EFO-27 human ovarian cancer cells (human)
T1 chain: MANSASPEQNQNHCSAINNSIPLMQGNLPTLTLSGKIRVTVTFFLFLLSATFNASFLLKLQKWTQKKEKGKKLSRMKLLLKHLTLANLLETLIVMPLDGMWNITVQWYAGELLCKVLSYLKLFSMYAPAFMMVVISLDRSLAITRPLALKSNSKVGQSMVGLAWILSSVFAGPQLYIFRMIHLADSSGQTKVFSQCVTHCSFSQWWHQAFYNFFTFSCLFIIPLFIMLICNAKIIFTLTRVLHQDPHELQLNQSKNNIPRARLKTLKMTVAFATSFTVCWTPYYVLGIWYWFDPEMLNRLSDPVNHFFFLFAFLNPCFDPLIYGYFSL
experiment_summary: competition with [125I-Tyr8]BRU-2477 on EFO-27 cells
Non-standard residues stand in square brackets, D forms with d. Bpa = N[C@@H](Cc1ccc(C(=O)c2ccccc2)cc1)C(=O)O; DO3A10CM = not defined here; azaGly = NNC(=O)O; Sar = CNCC(=O)O
readout_label: pEC50
# pEC50 is unitless: minus log10 of the molar concentration; print number only

| binder | pEC50 |
| --- | --- |
| DO3A10CM-[Sar]KWSH[dR]W[Bpa]P[azaGly]-NH2 (reading uncertain, AA2 Lys) [BRU-2871] | 5.00 |
| DO3A10CM-[Sar]YWSH[dR]W[Bpa]P[azaGly]-NH2 (reading uncertain, AA2 Tyr) [BRU-2814] | 5.65 |

Ask: If you can, please state the reported pEC50 value of GHWSHXWXPX (DO3A10CM on N-terminus; AA6 Darg; AA8 Bpa4; AA10 azaGly-NH2, AA1 Gly) [BRU-2733] .
Reply: 5.93

// data source = patent US20120045393A1
